Molecular target: Plasminogen (Homo sapiens)
Sequence (P00747 97-580 limits assumed): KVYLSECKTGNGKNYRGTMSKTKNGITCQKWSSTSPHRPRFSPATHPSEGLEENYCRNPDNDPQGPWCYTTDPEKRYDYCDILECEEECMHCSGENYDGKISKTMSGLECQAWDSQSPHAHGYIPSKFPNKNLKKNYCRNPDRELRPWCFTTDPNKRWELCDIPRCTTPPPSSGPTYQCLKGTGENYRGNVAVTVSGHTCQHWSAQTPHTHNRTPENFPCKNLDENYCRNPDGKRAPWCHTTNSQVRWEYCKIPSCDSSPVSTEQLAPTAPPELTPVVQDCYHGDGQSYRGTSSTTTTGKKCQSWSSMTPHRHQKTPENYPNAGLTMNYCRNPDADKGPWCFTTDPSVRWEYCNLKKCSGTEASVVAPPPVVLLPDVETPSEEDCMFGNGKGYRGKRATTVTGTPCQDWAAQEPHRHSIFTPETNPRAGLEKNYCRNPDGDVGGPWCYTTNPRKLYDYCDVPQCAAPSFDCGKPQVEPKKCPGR
Sequence (P00747 581-810 limits assumed): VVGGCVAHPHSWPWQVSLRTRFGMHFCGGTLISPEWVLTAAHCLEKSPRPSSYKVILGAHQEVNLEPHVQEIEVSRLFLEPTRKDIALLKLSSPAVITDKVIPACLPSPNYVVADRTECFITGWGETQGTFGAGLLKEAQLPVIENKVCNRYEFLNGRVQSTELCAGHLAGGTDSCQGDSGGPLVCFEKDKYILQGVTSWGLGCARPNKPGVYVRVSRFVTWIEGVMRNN
Readout Name: pKd
Keep in mind that pKd stands for -log10 of concentration in molar terms.

Recorded pKd for `Cl.O=P(O)(O)c1ccc2c(n1)CCNC2` on Plasminogen (Homo sapiens) was 4.68

====

Experiment: AUC (0 to infinity) in beagle dog at 2 mg/kg, IM measured upto 24 hrs by LC-MS/MS analysis
Format: ADME, organism-based, Canis lupus familiaris
Details: in vivo
Readout Name: AUC(0-inf) (ng·h/mL)
Just the number in ng·h/mL, nothing appended.

Entry `Cl.O=P(O)(O)c1ccc2c(n1)CCNC2` — recorded AUC(0-inf) = 16500

====

Assay: Half life in beagle dog at 1 mg/kg, iv measured upto 24 hrs by LC-MS/MS analysis
Assay type: ADME, organism-based, Canis lupus familiaris
Settings: in vivo
Readout Name: half-life (h)
Just the number in h, nothing appended.

Entry NC[C@H]1CC[C@H](C(=O)O)CC1 [TRANEXAMIC ACID] — recorded half-life = 5.34

====

Experiment: Toxicity in Sprague-Dawley rat assessed as no observed adverse effect level (NOAEL) treated for 14 days
Conditions: in vivo, time 14 day
Readout Name: NOAEL at 336 h (mg/kg)
Just the number in mg/kg, nothing appended.

Entry `Cl.O=P(O)(O)c1ccc2c(n1)CCNC2` — recorded NOAEL at 336 h = 60
